- Test system: REH
- test_details: selective drug sensitivity score (sDSS, relative to normal bone marrow) (sDSS (score)); higher = more potent and effective on the cell line relative to normal bone marrow cells;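 note: ALL cell lines in 384-well plates, five doses spanning 10,000-fold, each plate scaled between vehicle and 100 µmol/L benzalkonium chloride controls, sDSS an adapted area-under-curve metric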
- test_settings: 72 h
parameter_measured: selective drug sensitivity score
Give bare numbers.

compound	selective drug sensitivity score
COc1cc(Nc2ncc(F)c(Nc3ccc4c(n3)NC(=O)C(C)(C)O4)n2)cc(OC)c1OC [Tamatinib] (top concentration 10000 nM)	-2.22
C[C@@H]1CCN(C(=O)CC#N)C[C@@H]1N(C)c1ncnc2[nH]ccc12 [Tofacitinib] (top concentration 5000 nM)	-7.66

Now look at this entry.
What selective drug sensitivity score value was documented for this compound, CC[C@@H]1C(=O)OC[C@@H]1Cc1cncn1C [Pilocarpine] (top concentration 40000 nM) ?
-1.56

---

- System: COG-LL-402h
- test_details: selective drug sensitivity score (sDSS, relative to normal bone marrow) (sDSS (score)); higher = more potent and effective on the cell line relative to normal bone marrow cells
- test_settings: 72 h
Answer -1 if selective drug sensitivity score is under -0.06, and 1 if it is -0.06 or more.

# example entries with known answers
molecule	assigned_label
CN(C)C(=O)c1ccc(S(=O)(=O)c2ccc(NC(=O)[C@@](C)(O)C(F)(F)F)c(Cl)c2)cc1 [AZD7545] (top concentration 10000 nM)	-1
CN1CCN(C2CCN(C(=O)Nc3cc(Oc4ccc(NC(=O)C5(C(=O)Nc6ccc(F)cc6)CC5)c(F)c4)ccn3)CC2)CC1 [Golvatinib] (top concentration 2500 nM)	-1
O=C(CCCCCCNC(=O)c1cnc(N(c2ccccc2)c2ccccc2)nc1)NO [Rocilinostat] (top concentration 10000 nM)	1

Could you tell me if the measured selective drug sensitivity score of CC[C@@H]1C(=O)OC[C@@H]1Cc1cncn1C [Pilocarpine] (top concentration 40000 nM) reaches -0.06 or more?
-1

---

- Test system: LC4-1
- test_details: selective drug sensitivity score (sDSS, relative to normal bone marrow) (sDSS (score)); higher = more potent and effective on the cell line relative to normal bone marrow cells
- test_settings: 72 h
Assignment: determine reported selective drug sensitivity score for the given compounds.
Give bare numbers.

Sample answers from the record:
compound	parameter_measured	measured_value
COc1ccc(COc2cc3oc(=O)c4cc(C(C)O)ccc4c3cc2OC)cc1 (centres undefined) [Palomid-529] (top concentration 10000 nM)	selective drug sensitivity score	12.6
O=C(O)CCCCC(CCSCc1ccccc1)SCc1ccccc1 (centres undefined) [Devimistat (CPI-613)] (top concentration 10000 nM)	selective drug sensitivity score	2.1
C[C@@H]1CN(C(=O)c2ccc(NC(=O)c3cc(O[C@H](C)c4c(Cl)ccc(F)c4Cl)c(N)nn3)cc2)C[C@H](C)N1 [Ensartinib] (top concentration 1000 nM)	selective drug sensitivity score	-1.44

Attention now turns to another entry.
Which value of selective drug sensitivity score has been reported for Nc1ccccc1NC(=O)c1ccc(CNC(=O)OCc2cccnc2)cc1 [Entinostat] (top concentration 10000 nM) in the records?
4.48

---

- Tested on: COG-LL-317
- test_details: selective drug sensitivity score (sDSS, relative to normal bone marrow) (sDSS (score)); higher = more potent and effective on the cell line relative to normal bone marrow cells
- test_settings: 72 h
Classify as follows. Reported selective drug sensitivity score greater than or equal to -0.08: t. Reported selective drug sensitivity score below: f.

These solved cases illustrate the format of a correct answer.
compound	assigned_label
O=C(O)CC1CC(c2ccccc2)=NO1 (centres undefined) [VGX-1027] (top concentration 10000 nM)	t
Cc1ccc(-n2nc(C(C)(C)C)cc2NC(=O)Nc2ccc(OCCN3CCOCC3)c3ccccc23)cc1 [Doramapimod] (top concentration 10000 nM)	t
C=CC(=O)Nc1cc(Nc2nccc(-c3cn(C)c4ccccc34)n2)c(OC)cc1N(C)CCN(C)C [Osimertinib] (top concentration 2500 nM)	t

Given the entry C[C@H](Nc1ncnc2nc[nH]c12)c1cc2cccc(Cl)c2c(=O)n1-c1ccccc1 [Duvelisib] (top concentration 500 nM) , answer whether its selective drug sensitivity score meets or surpasses -0.08.
t

Try Cc1nc(NC(=O)N2CCC[C@H]2C(N)=O)sc1-c1ccnc(C(C)(C)C(F)(F)F)c1 [Alpelisib] (top concentration 2500 nM) next.
f

Same for CONC(=O)c1ccccc1Nc1cc(Nc2cc(C)nn2C(C)C)ncc1Cl (top concentration 1000 nM)
f

Okay, and CCN(CC)CCNC(=O)c1c(C)[nH]c(/C=C2\C(=O)Nc3ccc(F)cc32)c1C [Sunitinib] (top concentration 1000 nM) ?
f

Same read-out for CN1CCN(C2CCC(n3cc(-c4ccc(Oc5ccccc5)cc4)c4c(N)ncnc43)CC2)CC1 (centres undefined) (top concentration 10000 nM) ?
t

Field entry: Cc1c(-c2c(-c3ccc(F)o3)sc3ncnc(O[C@H](Cc4ccccc4OCc4ccnn4CC(F)(F)F)C(=O)O)c23)ccc(OCCN2CCN(C)CC2)c1Cl (top concentration 1000 nM)
f

---

- System: TANOUE
- test_details: selective drug sensitivity score (sDSS, relative to normal bone marrow) (sDSS (score)); higher = more potent and effective on the cell line relative to normal bone marrow cells
- test_settings: 72 h
parameter_measured: selective drug sensitivity score
One number for each entry.

compound	measured_on	parameter_measured	measured_value
NC(=O)N1CCC(CC(=O)N2CCC([C@H]3c4ncc(Br)cc4CCc4cc(Cl)cc(Br)c43)CC2)CC1 [Lonafarnib] (top concentration 100000 nM)	TANOUE	selective drug sensitivity score	-3.96
C=CC(=O)Nc1cccc(Oc2nc(Nc3ccc(N4CCN(C)CC4)cc3)nc3ccsc23)c1 [Olmutinib] (top concentration 1000 nM)	TANOUE	selective drug sensitivity score	-0.02

Moving on to another compound below.
Which selective drug sensitivity score value belongs to CC(=O)O[C@]1(C(C)=O)CC[C@H]2[C@@H]3C=C(C)C4=CC(=O)CC[C@]4(C)[C@H]3CC[C@@]21C [Megestrol_acetate] (top concentration 10000 nM) ?
-0.38

---

Kindly supply the reported selective drug sensitivity score values for the records listed here.
- System: CCRF-CEM
- test_details: selective drug sensitivity score (sDSS, relative to normal bone marrow) (sDSS (score)); higher = more potent and effective on the cell line relative to normal bone marrow cells
- test_settings: 72 h

Take a look at these entries with their results.
compound	selective drug sensitivity score
Clc1ccccc1C(c1ccccc1)(c1ccccc1)n1cccn1 [TRAM-34] (top concentration 1000 nM)	-0.08
COc1cc(C)c(/C=C/C(C)=C/C=C/C(C)=C/C(=O)O)c(C)c1C [Acitretin] (top concentration 10000 nM)	-1
O=c1[nH]c(=O)n([C@H]2C[C@H](O)[C@@H](CO)O2)cc1C(F)(F)F [Trifluridine] (top concentration 10000 nM)	14.2
CC(C)[C@@H](CS(=O)(=O)C(C)C)N1C(=O)[C@@](C)(CC(=O)O)C[C@H](c2cccc(Cl)c2)[C@H]1c1ccc(Cl)cc1 [AMG-232] (top concentration 10000 nM)	-7.34
CN1CCN(C(=O)c2ccc3cc(CCNc4ncnc5ccc(C#N)cc45)ccc3c2)CC1 [Senexin_B] (top concentration 1000 nM)	1.7
CN(Cc1cnc2nc(N)nc(N)c2n1)c1ccc(C(=O)N[C@@H](CCC(=O)O)C(=O)O)cc1 [Methotrexate] (top concentration 5000 nM)	13

Batch of 7 compounds: report selective drug sensitivity score for each.
1. CCNc1nc(Nc2cc(F)c(C(=O)N3CCOCC3)cc2OC)ncc1C(F)(F)F [GNE-7915] (top concentration 1000 nM)
2. COC12C(COC(N)=O)C3=C(C(=O)C(C)=C(N)C3=O)N1CC1NC12 (stereo in doubt) [Mitomycin_C] (top concentration 10000 nM)
3. N#CC1(c2ccc(NC(=O)c3cccnc3NCc3ccncc3)cc2)CCCC1 [Apatinib] (top concentration 10000 nM)
4. CCN(CCO)CCCOc1ccc2c(Nc3cc(CC(=O)Nc4cccc(F)c4)[nH]n3)ncnc2c1 [AZD1152-HQPA] (top concentration 1000 nM)
5. CN(C(=O)c1ccc(F)cc1C(F)(F)F)C1CCN(c2nnc(-c3ccnn3C)c3ccccc23)CC1 [Taladegib] (top concentration 10000 nM)
6. CN(C)C1CCN(C(=O)c2ccc(NC(=O)Nc3ccc(-c4nc(N5CCOCC5)nc(N5CCOCC5)n4)cc3)cc2)CC1 [Gedatolisib] (top concentration 1000 nM)
7. CCc1c(C(=O)C(N)=O)c2c(OCC(=O)O)cccc2n1Cc1ccccc1 [Varespladib] (top concentration 10000 nM)

1: -0.06; 2: -2.86; 3: 0; 4: 16.9; 5: -0.82; 6: 7.26; 7: -0.84

---

- Test system: ALL-PO
- test_details: selective drug sensitivity score (sDSS, relative to normal bone marrow) (sDSS (score)); higher = more potent and effective on the cell line relative to normal bone marrow cells
- test_settings: 72 h
Give measured selective drug sensitivity score for each item. Keep answers brief.
Answers are plain numbers.

compound	measured_on	selective drug sensitivity score
Cc1nc(NC(=O)N2CCC[C@H]2C(N)=O)sc1-c1ccnc(C(C)(C)C(F)(F)F)c1 [Alpelisib] (top concentration 2500 nM)	ALL-PO	3.28

Field: selective drug sensitivity score. Fill in for each record below.
1. COc1c(C)cnc(Cn2cnc3c(Cl)nc(N)nc32)c1C [BIIB021] (top concentration 10000 nM)
2. CCN(c1cc(-c2ccc(CN3CCOCC3)cc2)cc(C(=O)NCc2c(C)cc(C)[nH]c2=O)c1C)C1CCOCC1 [Tazemetostat] (top concentration 10000 nM)
3. COc1ccc(COc2cc3oc(=O)c4cc(C(C)O)ccc4c3cc2OC)cc1 (centres undefined) [Palomid-529] (top concentration 10000 nM)

1. 5.88
2. 0.32
3. 2.86
